The reported numbers originate from the METLIN SMRT retention time set (Domingo-Almenara et al. 2019).

Below, each entry is listed with its recorded RP-LC retention time.
experiment: gradient 5% acetonitrile 3 min, to 50% in 2 min, to 85% in 15 min, held 3 min, 100 µL/min; conditions: column: Zorbax Extend-C18 2.1 x 50 mm; eluents: water / acetonitrile, 0.1% formic acid
Numeric answer only, unit s assumed.

Worked cases, RP-LC retention time given:
CC(C)n1cc2cc(C(=O)N(C)CCc3ccncc3)sc2c1 | 709
CCn1cc(CCNC(=O)Nc2cc(C)cc(C)c2)c2cccnc21 | 705
O=C(Nc1cccc(OC(F)(F)F)c1)C1(CCO)CCN(c2ncccn2)C1 (stereo unspecified) | 661

Exam item: Which value of RP-LC retention time has been reported for `CCCNC(=O)c1ccc2nc(CCc3ccc(NC(=O)CC)cc3)[nH]c2c1` in the records?
Marked response: 608

Exam item: Input `O=C(Nc1ncn[nH]1)c1ccccc1`
Marked response: 646

Exam item: Try this compound too: `O=C(Cc1ccsc1)Nc1ccc2c(c1)CCC(=O)N2`
Marked response: 662

Exam item: Here is the next compound: `O=C(CCn1c(=O)oc2ccccc21)Nc1nc(-c2ccccc2)cs1`
Marked response: 961

Exam item: Same read-out for `Cc1noc(C)c1-c1ccc(S(=O)(=O)NCCc2ccccc2)cc1` ?
Marked response: 957
